Target: T1, DEGP protein, purified (SPRi analyte) (E. coli (strain MSI001), UniProt P0C0V0 27-474)
T1 sequence (looked up): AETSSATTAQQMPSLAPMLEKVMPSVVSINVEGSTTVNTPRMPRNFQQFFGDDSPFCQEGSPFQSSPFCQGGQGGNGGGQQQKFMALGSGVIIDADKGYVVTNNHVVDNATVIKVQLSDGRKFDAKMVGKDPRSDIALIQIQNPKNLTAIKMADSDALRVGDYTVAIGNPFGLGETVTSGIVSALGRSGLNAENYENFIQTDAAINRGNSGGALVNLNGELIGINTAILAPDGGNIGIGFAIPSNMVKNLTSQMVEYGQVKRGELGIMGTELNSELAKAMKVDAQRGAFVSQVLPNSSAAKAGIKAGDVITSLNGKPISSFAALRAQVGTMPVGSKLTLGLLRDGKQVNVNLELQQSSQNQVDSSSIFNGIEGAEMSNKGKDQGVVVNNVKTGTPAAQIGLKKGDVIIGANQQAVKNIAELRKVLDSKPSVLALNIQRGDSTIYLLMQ
Assay: SPR
Conditions: both partners purified
metric: Kd

input: Can you share its Kd? I mean this binder: VTKLGSL (also called VTK peptide; source: synthetic peptide) [VTK heptapeptide VTKLGSL, synthesized (immobilised on the SPRi chip)]
output: 15.8 nM
